The following sequences are listed with their measured protein stability index values.
- Tested on: Saccharomyces cerevisiae;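 further: PSI is a weighted mean of sequencing reads over stability bins, variants kept only with over 10 reads, mCherry proximal and sfGFP distal, peptide attached via GGGS linker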
- experimental-protocol: protein stability index of tFT-peptide fusion (C-terminal peptide) (PSI (0-1 scale)); higher = more stable (slower turnover)
- test-conditions: genetic background: wild type; temperature: 37 C
endpoint-name: protein stability index

    sequence_string  recorded_measurement
 0     GTETWVFVLLKF                 0.179
 1     GVVCCVVVGRMG                 0.636
 2     SVVLCRFVLRIF                 0.136
 3     VSVQVRCCPWVG                 0.709
 4     FFCLVEVFVGVF                 0.107
 5     CVILVSFFCYSA                 0.284
 6     LRRVHRIKLQVC                 0.102
 7     RLLRGDRMVICS                 0.582
 8     RICCLFILLFCL                 0.412
 9     VAFVVALSLIFL                  0.43
10     RITGCWKTYKMQ                 0.342
11     ESSRNILLWRTI                 0.565
12     FSVTTLTILCLR                 0.382
13     VGEQEVVGIGGV                 0.719
14     LPVPVLGFPPLA                  0.71
15     VLLSFVFCGWVR                 0.496
16     LCFTSVFTLFIC                0.0756
17     LWNFYELVVYAM                 0.114
18     FSLRLFLVLALS                 0.227
19     IPHLNCCCCLVR                  0.55
20     PALPTPPVSPSP                 0.436
21     GGGAGVVWVRLG                 0.166
22     GELDVRKLLKYF                 0.383
23     FVLWWGWSWLVV                 0.282
24     VCVLRWAVAPCR                 0.399
25     AGGVNWWSSWRV                  0.78
26     FGLLLVLASALG                 0.441
27     FFSFFLSFRLWF                 0.434
28     GRVAIFTLLWRI                  0.29
29     SVHKYGFIKEIN                 0.667
30     FSYLSFLPSLAA                 0.565
31     GALWPGALRFLN                 0.195
32     DILCGRCMIVGA                 0.555
33     IHIFIIFRVQWK                 0.249
34     LFSFVCLVFFLW                 0.418
35     GLVWSKCFFIVG                 0.528
36     WSWVFVVLRFGR                 0.562
